src = ChEMBL document CHEMBL1156558

target: Peroxisome proliferator-activated receptor delta (Homo sapiens); test: Agonist activity at PPARdelta transfected in HEK293 cells by GAL4 transactivation assay
Sequence (Q03181 whole entry, the tested form may be a part): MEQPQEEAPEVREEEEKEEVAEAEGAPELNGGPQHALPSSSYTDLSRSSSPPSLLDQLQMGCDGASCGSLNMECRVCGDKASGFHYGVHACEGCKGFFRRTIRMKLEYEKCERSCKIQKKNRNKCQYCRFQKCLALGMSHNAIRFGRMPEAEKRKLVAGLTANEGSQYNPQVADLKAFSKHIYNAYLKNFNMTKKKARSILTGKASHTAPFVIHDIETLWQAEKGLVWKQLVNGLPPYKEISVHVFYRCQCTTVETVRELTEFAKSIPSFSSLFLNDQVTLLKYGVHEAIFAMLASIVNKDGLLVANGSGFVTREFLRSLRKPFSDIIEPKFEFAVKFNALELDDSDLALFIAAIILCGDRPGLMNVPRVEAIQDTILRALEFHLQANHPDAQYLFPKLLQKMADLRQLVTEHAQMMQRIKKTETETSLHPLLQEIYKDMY
pEC50: −log10 of the molar value.
OUTCOME_MEASURE: pEC50

CCC(Cc1ccc(OC)c(CNC(=O)c2ccc(C(F)(F)F)cc2F)c1)C(=O)O (racemic)	7.54

a. CCC(Cc1cc(F)c(OC)c(CNC(=O)c2ccc(C(F)(F)F)cc2)c1)C(=O)O (racemic)
b. CCC(Cc1ccc(OC)c(CNC(=O)c2ccc(C34CC5CC(CC(C5)C3)C4)cc2F)c1)C(=O)O (racemic)
c. CCCOc1cc(F)c(C[C@H](CC)C(=O)O)cc1CNC(=O)c1ccc(C23CC4CC(CC(C4)C2)C3)cc1F
d. CCC(Cc1cc(CNC(=O)c2ccc(C34CC5CC(CC(C5)C3)C4)cc2)c(OC)cc1F)C(=O)O (racemic)
In this exercise, place the 4 compounds in ascending sequence of their recorded pEC50. Please respond by ranking the labels in the order requested. b, d, a, c
